The reported measurements were obtained from paper PMC10233829.

- test_protocol: MTT assay, cytotoxic activity
- Type: cell-based
- condition_details: human, HaCaT cells (immortal keratinocytes); MTT, 72 h, normal cell line; read-out: IC50 HaCaT
Would you mind telling me the reported IC50 at 72 h of each entry?
Answers are plain numbers, in µM.

- O=C(O)c1cn(C2CC2)c2cc(N3CCN(C(=O)CCCCCCCCCCBr)CC3)c(F)cc2c1=O: 93.4
- O=C(O)c1cn(C2CC2)c2cc(N3CCN(C(=O)CCCCCl)CC3)c(F)cc2c1=O: 19.7
- O=C(O)c1cn(C2CC2)c2cc(N3CCN(CCCCC(=O)N4CCN(c5cc6c(cc5F)c(=O)c(C(=O)O)cn6C5CC5)CC4)CC3)c(F)cc2c1=O: 72.9
- O=C(O)c1cn(C2CC2)c2cc(N3CCN(CCCCCC(=O)N4CCN(c5cc6c(cc5F)c(=O)c(C(=O)O)cn6C5CC5)CC4)CC3)c(F)cc2c1=O: 89.5
- C=CC(=O)N1CCN(c2cc3c(cc2F)c(=O)c(C(=O)O)cn3C2CC2)CC1: 100

Parameter requested: IC50 at 72 h. Apply to each item below.
1. O=C(O)c1cn(C2CC2)c2cc(N3CCN(C(=O)CCCCBr)CC3)c(F)cc2c1=O
2. O=C(O)c1cn(C2CC2)c2cc(N3CCN(C(=O)CBr)CC3)c(F)cc2c1=O
3. O=C(O)c1cn(C2CC2)c2cc(N3CCN(C(=O)CCl)CC3)c(F)cc2c1=O

Result:
1. 80.1
2. 44.9
3. 35.7

----------
Please respond with reported MIC for every item in the list.
- Tested on: E. coli ATCC 25922
- test_protocol: MIC, twofold microdilution, standard strain
- Format: cell-based, Escherichia coli
- condition_details: Escherichia coli, ATCC25922; standard strain, 18 h
Numbers only, in µg/mL.

Sample records with MIC:
* O=C(O)c1cn(C2CC2)c2cc(N3CCN(C(=O)CCCCCCCCCCBr)CC3)c(F)cc2c1=O [Compound 13] | 25.6
* O=C(O)c1cn(C2CC2)c2cc(N3CCN(C(=O)CCCCl)CC3)c(F)cc2c1=O [Compound 5] | 0.025
* O=C(O)c1cn(C2CC2)c2cc(N3CCN(CCCC(=O)N4CCN(c5cc6c(cc5F)c(=O)c(C(=O)O)cn6C5CC5)CC4)CC3)c(F)cc2c1=O [Compound 18, CP–Butyryl–CP Dimer] | 16
* O=C(O)c1cn(C2CC2)c2cc(N3CCN(C(=O)CCCl)CC3)c(F)cc2c1=O [Compound 4] | 3.2
* O=C(O)c1cn(C2CC2)c2cc(N3CCN(C(=O)CCCBr)CC3)c(F)cc2c1=O [Compound 10] | 0.025

Respectfully, I request MIC for each entry included below.
1. O=C(O)c1cn(C2CC2)c2cc(N3CCN(CCCCC(=O)N4CCN(c5cc6c(cc5F)c(=O)c(C(=O)O)cn6C5CC5)CC4)CC3)c(F)cc2c1=O [Compound 19, CP–Pentanoyl–CP Dimer]
2. O=C(O)c1cn(C2CC2)c2cc(N3CCN(C(=O)CCl)CC3)c(F)cc2c1=O [Compound 3]

Result:
1: 0.4; 2: 0.2

----------
- System: E. cloacae 8
- test_protocol: MIC, twofold microdilution, clinical strain
- Type: cell-based, Escherichia cloacae
- condition_details: Enterobacter cloacae, 8; clinical strain, 18 h
readout_label: MIC

Solved entries:
- C=CC(=O)N1CCN(c2cc3c(cc2F)c(=O)c(C(=O)O)cn3C2CC2)CC1 [Compound 1]: 3.2 µg/mL
- O=C(O)c1cn(C2CC2)c2cc(N3CCN(C(=O)CCC(F)(F)F)CC3)c(F)cc2c1=O [Compound 15]: > 25.6 µg/mL
- O=C(O)c1cn(C2CC2)c2cc(N3CCN(C(=O)CCl)CC3)c(F)cc2c1=O [Compound 3]: 0.8 µg/mL
- O=C(O)c1cn(C2CC2)c2cc(N3CCN(C(=O)CCBr)CC3)c(F)cc2c1=O [Compound 9]: 2 µg/mL
- O=C(O)c1cn(C2CC2)c2cc(N3CCN(CCCC(=O)N4CCN(c5cc6c(cc5F)c(=O)c(C(=O)O)cn6C5CC5)CC4)CC3)c(F)cc2c1=O [Compound 18, CP–Butyryl–CP Dimer]: 0.8 µg/mL

Would you mind giving MIC for every compound in the list below?
1. O=C(O)c1cn(C2CC2)c2cc(N3CCN(CC(=O)N4CCN(c5cc6c(cc5F)c(=O)c(C(=O)O)cn6C5CC5)CC4)CC3)c(F)cc2c1=O [Compound 17, CP–Acetyl–CP Dimer]
2. O=C(O)c1cn(C2CC2)c2cc(N3CCN(C(=O)CCCCCCCCCCBr)CC3)c(F)cc2c1=O [Compound 13]

Result:
["25.6 µg/mL", "> 25.6 µg/mL"]

----------
Answer each item with its documented viability at 72 h.
- test_protocol: Trypan blue exclusion assay
- Type: cell-based, human
- condition_details: human; HaCaT, 72 h, compound at IC50
Give bare numbers, in %.

• O=C(O)c1cn(C2CC2)c2cc(N3CCN(C(=O)CCl)CC3)c(F)cc2c1=O = 75
• O=C(O)c1cn(C2CC2)c2cc(N3CCN(C(=O)CCC(F)(F)F)CC3)c(F)cc2c1=O = 90

We now examine a further compound.
Ask: Need viability at 72 h, item O=C(O)c1cn(C2CC2)c2cc(N3CCN(CCCCCCCCCCC(=O)N4CCN(c5cc6c(cc5F)c(=O)c(C(=O)O)cn6C5CC5)CC4)CC3)c(F)cc2c1=O
Result: 94

----------
- Test system: S. epidermidis 4341
- test_protocol: MIC, twofold microdilution, clinical strain
- Assay type: cell-based
- condition_details: Staphylococcus epidermidis, 18 h
readout_label: MIC (µg/mL)
One number for each entry, in µg/mL.

• O=C(O)c1cn(C2CC2)c2cc(N3CCN(C(=O)CCCCCBr)CC3)c(F)cc2c1=O [Compound 12] = 64
• O=C(O)c1cn(C2CC2)c2cc(N3CCN(C(=O)CCCl)CC3)c(F)cc2c1=O [Compound 4] = 6.4
• O=C(O)c1cn(C2CC2)c2cc(N3CCN(C(=O)CCCCl)CC3)c(F)cc2c1=O [Compound 5] = 12.8
• O=C(O)c1cn(C2CC2)c2cc(N3CCN(C(=O)CCBr)CC3)c(F)cc2c1=O [Compound 9] = 16

Hey, can you go through the list below and give me MIC for every item?
1. O=C(O)c1cn(C2CC2)c2cc(N3CCN(C(=O)CBr)CC3)c(F)cc2c1=O [Compound 8]
2. O=C(O)c1cn(C2CC2)c2cc(N3CCN(C(=O)CCl)CC3)c(F)cc2c1=O [Compound 3]

Result:
12.8
12.8

----------
- Test system: S. epidermidis ATCC 12228
- test_protocol: MIC, twofold microdilution, standard strain
- Format: cell-based
- condition_details: Staphylococcus epidermidis, ATCC12228, 18 h
readout_label: MIC (µg/mL)
Answers are plain numbers, in µg/mL.

• O=C(O)c1cn(C2CC2)c2cc(N3CCN(C(=O)CCCCCCl)CC3)c(F)cc2c1=O = 0.4

// for each compound below, give its MIC
1. O=C(O)c1cn(C2CC2)c2cc(N3CCN(C(=O)CCCC(F)(F)F)CC3)c(F)cc2c1=O
2. O=C(O)c1cn(C2CC2)c2cc(N3CCN(C(=O)CCCCl)CC3)c(F)cc2c1=O

Result:
[0.2, 0.4]

----------
- assay_system: S. aureus topoisomerase IV (Staphylococcus aureus, UniProt P0C1S7+P0C1U9)
- Construct: purchased Inspiralis, Norwich, UK
- test_protocol: Topoisomerase IV decatenation assay
- Type: biochemical
- condition_details: decatenation of kinetoplast DNA; read-out: IC50 S. aureus topoisomerase IV (converted)
Field: IC50. Provide a value for each of the compounds that follow.
Answers are plain numbers, in µM.

Use the examples below as a reference point.
• O=C(O)c1cn(C2CC2)c2cc(N3CCN(C(=O)CCCCBr)CC3)c(F)cc2c1=O [Compound 11] = 12.1
• O=C(O)c1cn(C2CC2)c2cc(N3CCN(C(=O)CCl)CC3)c(F)cc2c1=O [Compound 3] = 78.5
• O=C(O)c1cn(C2CC2)c2cc(N3CCN(C(=O)CCCCl)CC3)c(F)cc2c1=O [Compound 5] = 6.19
• O=C(O)c1cn(C2CC2)c2cc(N3CCN(C(=O)CCCBr)CC3)c(F)cc2c1=O [Compound 10] = 10.4
• O=C(O)c1cn(C2CC2)c2cc(N3CCN(C(=O)C4CC4)CC3)c(F)cc2c1=O [Compound 2] = 23.8

For every listed record, write down its IC50.
1. C=CC(=O)N1CCN(c2cc3c(cc2F)c(=O)c(C(=O)O)cn3C2CC2)CC1 [Compound 1]
2. O=C(O)c1cn(C2CC2)c2cc(N3CCN(C(=O)CCCCCl)CC3)c(F)cc2c1=O [Compound 6]

Result:
25.9
17.8
